- SYSTEM_NAME: T1, recombinant human IL-13 (human, UniProt P35225 35-146)
- T1 construct: also called rh-IL-13; hIL-13
- MEASUREMENT_PROTOCOL: SPR
API: label(entry) gives 1 (yes) if the entry's koff is strictly smaller than 0.0002 s⁻¹; on equality or larger values it gives 0 (no).

{"BINDER": "BDG38.118 (antibody, V domains shown, IgG1) VH: QMQLVESGGGVVQPGRSLRLSCAASGFEFRTYGMHWVRQAPGKGLEWVGVIWYDGSATHYADSVKGRFTITRDNSKNTLNLQMNSLRVEDTAVYYCVRAPQWYLTAEAFDLWGQGTMVTVSS VL: SYILTQPPSVSVAPGETATITCGGNLIGARLVHWYQQKPGQAPVLVIYDDSDRPSRIPERFSGSNIGNTATLTISDVEEGDEADYYCQVWDYSSDHYVFGGGTKLTVL", "GROUP": "1 (yes)"}
{"BINDER": "BDG38.128 (antibody, V domains shown, IgG1) VH: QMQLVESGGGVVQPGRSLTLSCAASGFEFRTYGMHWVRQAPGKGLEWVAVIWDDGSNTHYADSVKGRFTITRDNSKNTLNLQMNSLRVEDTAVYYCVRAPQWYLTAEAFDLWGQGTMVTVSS VL: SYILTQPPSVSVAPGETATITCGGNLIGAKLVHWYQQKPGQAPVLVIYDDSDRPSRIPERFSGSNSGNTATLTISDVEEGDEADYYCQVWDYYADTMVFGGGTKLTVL", "GROUP": "1 (yes)"}
{"BINDER": "BDG38.134 (antibody, V domains shown, IgG1) VH: QMQLVESGGGVVQPGQSLRLSCAASGFEFRTYGMHWVRQAPGKGLEWLAVIWYDGSNTHYADSVKGRFTITRDNSKNTLNLQMNSLRAEDTAVYYCVRAPQWYNSAEAFDLWGQGTMVTVSS VL: SYVLTQPPSVSVAPGQTARITCGGNLIGARLVHWYQQKPGQAPVLVIYDDSDRPSHIPERFSGSNSGNTATLTISRVEAGDEADYYCQVWDYSADTMVFGGGTKLTVL", "GROUP": "0 (no)"}
{"BINDER": "BDG38.140 (antibody, V domains shown, IgG1) VH: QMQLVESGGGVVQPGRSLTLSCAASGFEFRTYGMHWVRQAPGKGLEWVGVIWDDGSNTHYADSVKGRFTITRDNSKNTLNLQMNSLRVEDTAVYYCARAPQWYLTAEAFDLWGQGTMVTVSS VL: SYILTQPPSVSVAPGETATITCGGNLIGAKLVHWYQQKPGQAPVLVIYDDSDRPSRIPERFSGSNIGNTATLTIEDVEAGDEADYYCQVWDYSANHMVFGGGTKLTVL", "GROUP": "1 (yes)"}
{"BINDER": "BDG38.127 (antibody, V domains shown, IgG1) VH: QMQLVESGGGVVQPGRSLTLSCAASGFEFRTYGMHWVRQAPGKGLEWVGVIWYDGSATHYADSVKGRFTITRDNSKNTLNLQMNSLRAEDTAVYYCARAPQWYLTAEAFDLWGQGTMVTVSS VL: SYILTQPPSVSVAPGETATITCGGNLIGAKLVHWYQQKPGQAPVLVIYDDSDRPSRIPERFSGSNIGNTATLTISDVEAGDEADYYCQVWDYYSDTYVFGGGTKLTVL", "GROUP": "1 (yes)"}

Data origin: patent US20240059769A1
